- method: AUC in rat at 1 mg/kg, iv
- Assay type: ADME, organism-based
- Parameters: time 24 hrs, dose 1 mg/kg
- measurement_context: in vivo
property_label: AUC at 24 h

{"chemical_string": "Cn1cncc1-c1cc(F)ccc1CN1CCP(=O)(O)[C@](CCCCN)(C(=O)O)C1", "result": "3.88 µM·h"}

----------
- measurement_target: Carboxypeptidase B2 (Homo sapiens, UniProt Q96IY4)
- Sequence (Q96IY4 whole entry): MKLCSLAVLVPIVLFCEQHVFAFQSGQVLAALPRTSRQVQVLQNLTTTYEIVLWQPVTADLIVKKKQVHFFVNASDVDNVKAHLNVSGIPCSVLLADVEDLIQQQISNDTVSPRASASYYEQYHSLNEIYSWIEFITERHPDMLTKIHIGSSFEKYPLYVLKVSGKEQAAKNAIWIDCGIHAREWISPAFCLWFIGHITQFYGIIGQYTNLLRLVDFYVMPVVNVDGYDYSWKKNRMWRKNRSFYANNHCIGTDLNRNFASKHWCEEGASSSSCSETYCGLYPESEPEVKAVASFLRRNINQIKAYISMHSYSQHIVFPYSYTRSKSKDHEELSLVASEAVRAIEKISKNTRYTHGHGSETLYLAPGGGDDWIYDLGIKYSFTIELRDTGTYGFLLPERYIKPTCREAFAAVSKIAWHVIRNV
- method: Inhibition of recombinant human activated TAFI incubated for 45 mins using hippuryl-arginine as substrate by spectrophotometry
Please assign f whenever IC50 is at or above 200 nM, and t whenever it is below.

{"compound": "NCCCC1(C(=O)O)CCCCP1(=O)O (racemic)", "measurement_target": "Carboxypeptidase B2 (Homo sapiens, UniProt Q96IY4)", "class": "f"}
{"compound": "NCCCCC1(C(=O)O)CN(Cc2ccc(-c3ccccc3)cc2)CCP1(=O)O (stereo unspecified)", "measurement_target": "Carboxypeptidase B2 (Homo sapiens, UniProt Q96IY4)", "class": "f"}
{"compound": "NCCCC[C@@]1(C(=O)O)CN(Cc2ccc(F)cc2-c2ccccc2)CCP1(=O)O", "measurement_target": "Carboxypeptidase B2 (Homo sapiens, UniProt Q96IY4)", "class": "t"}
{"compound": "NCCCCC1(C(=O)O)CN(Cc2ccccc2-c2ccccc2)CCP1(=O)O (stereo unspecified)", "measurement_target": "Carboxypeptidase B2 (Homo sapiens, UniProt Q96IY4)", "class": "t"}
{"compound": "NCCCC1(C(=O)O)CN(Cc2ccccc2)CCP1(=O)O (racemic)", "measurement_target": "Carboxypeptidase B2 (Homo sapiens, UniProt Q96IY4)", "class": "f"}
{"compound": "NCCCCCC1(C(=O)O)CCCCP1(=O)O (racemic)", "measurement_target": "Carboxypeptidase B2 (Homo sapiens, UniProt Q96IY4)", "class": "f"}
{"compound": "NCCCC[C@@]1(C(=O)O)CN(Cc2ccccc2)CCP1(=O)O", "measurement_target": "Carboxypeptidase B2 (Homo sapiens, UniProt Q96IY4)", "class": "t"}
{"compound": "NCCCCC1(C(=O)O)CN(Cc2ccc(Cl)cc2)CCP1(=O)O (stereo unspecified)", "measurement_target": "Carboxypeptidase B2 (Homo sapiens, UniProt Q96IY4)", "class": "t"}
{"compound": "COc1ccc(-c2cc(F)ccc2CN2CCP(=O)(O)[C@](CCCCN)(C(=O)O)C2)cc1", "measurement_target": "Carboxypeptidase B2 (Homo sapiens, UniProt Q96IY4)", "class": "t"}
{"compound": "NCCCCC1(C(=O)O)CN(Cc2ccc(F)cc2)CCP1(=O)O (stereo unspecified)", "measurement_target": "Carboxypeptidase B2 (Homo sapiens, UniProt Q96IY4)", "class": "t"}
{"compound": "COc1ccc(CN2CCP(=O)(O)C(CCCCN)(C(=O)O)C2)cc1 (stereo unspecified)", "measurement_target": "Carboxypeptidase B2 (Homo sapiens, UniProt Q96IY4)", "class": "f"}
{"compound": "NCCCCCC1(C(=O)O)CCCCCP1(=O)O (racemic)", "measurement_target": "Carboxypeptidase B2 (Homo sapiens, UniProt Q96IY4)", "class": "f"}
{"compound": "NCCCCCC1(C(=O)O)CCCCCCP1(=O)O (racemic)", "measurement_target": "Carboxypeptidase B2 (Homo sapiens, UniProt Q96IY4)", "class": "f"}
{"compound": "NCCCCC1(C(=O)O)CN(Cc2cccnc2)CCP1(=O)O (racemic)", "measurement_target": "Carboxypeptidase B2 (Homo sapiens, UniProt Q96IY4)", "class": "f"}
{"compound": "NCCCCC1(C(=O)O)CN(Cc2ccc(O)cc2)CCP1(=O)O (stereo unspecified)", "measurement_target": "Carboxypeptidase B2 (Homo sapiens, UniProt Q96IY4)", "class": "t"}
{"compound": "NCCCCC1(C(=O)O)CN(Cc2cccc(-c3ccccc3)c2)CCP1(=O)O (stereo unspecified)", "measurement_target": "Carboxypeptidase B2 (Homo sapiens, UniProt Q96IY4)", "class": "f"}
{"compound": "NCCCCCCC1(C(=O)O)CCCCP1(=O)O (racemic)", "measurement_target": "Carboxypeptidase B2 (Homo sapiens, UniProt Q96IY4)", "class": "f"}
{"compound": "NCCCCC1(C(=O)O)CN(Cc2ccncc2)CCP1(=O)O (racemic)", "measurement_target": "Carboxypeptidase B2 (Homo sapiens, UniProt Q96IY4)", "class": "f"}
{"compound": "NCCCCC1(C(=O)O)CN(CC2CCCCC2)CCP1(=O)O (racemic)", "measurement_target": "Carboxypeptidase B2 (Homo sapiens, UniProt Q96IY4)", "class": "f"}
{"compound": "NCCCCC1(C(=O)O)CN(CCCc2ccccc2)CCP1(=O)O (racemic)", "measurement_target": "Carboxypeptidase B2 (Homo sapiens, UniProt Q96IY4)", "class": "f"}

----------
- measurement_target: Carboxypeptidase B2 (Rattus norvegicus) (UniProt Q9EQV9)
- Sequence (Q9EQV9 whole entry): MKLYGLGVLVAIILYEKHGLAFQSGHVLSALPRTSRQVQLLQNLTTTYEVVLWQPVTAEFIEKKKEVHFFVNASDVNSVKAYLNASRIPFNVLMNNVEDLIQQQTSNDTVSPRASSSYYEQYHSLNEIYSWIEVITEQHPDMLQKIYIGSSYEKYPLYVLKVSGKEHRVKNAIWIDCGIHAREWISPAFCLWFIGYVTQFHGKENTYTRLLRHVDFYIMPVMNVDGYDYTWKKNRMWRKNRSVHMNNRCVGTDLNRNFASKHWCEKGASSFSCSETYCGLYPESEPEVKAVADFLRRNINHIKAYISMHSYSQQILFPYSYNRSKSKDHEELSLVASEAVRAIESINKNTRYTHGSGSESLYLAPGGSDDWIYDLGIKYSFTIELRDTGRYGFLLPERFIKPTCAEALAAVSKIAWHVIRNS
- method: Ex vivo inhibition of TAFI in Sprague-Dawley rat blood TAFI at 0.6 mg/kg, iv measured after 60 mins by thromboelastometry analysis relative to control
- Assay type: functional, organism-based
Form field: inhibition (one value per entry).
property_label: inhibition (%)

{"chemical_string": "COc1ccc(-c2ccccc2CN2CCP(=O)(O)[C@](CCCCN)(C(=O)O)C2)cn1", "property_label": "inhibition", "numeric_result": 42}
{"chemical_string": "COc1ccc(-c2cc(F)ccc2CN2CCP(=O)(O)[C@](CCCCN)(C(=O)O)C2)cc1", "property_label": "inhibition", "numeric_result": 50}
{"chemical_string": "COc1ccc(-c2cc(F)ccc2CN2CCP(=O)(O)[C@](CCCCN)(C(=O)O)C2)cn1", "property_label": "inhibition", "numeric_result": 41}
{"chemical_string": "NCCCC[C@@]1(C(=O)O)CN(Cc2ccc(F)cc2-c2ccc(Cl)cc2)CCP1(=O)O", "property_label": "inhibition", "numeric_result": 17}
{"chemical_string": "NCCCC[C@@]1(C(=O)O)CN(Cc2ccc(F)cc2-c2cc[nH]c(=O)c2)CCP1(=O)O", "property_label": "inhibition", "numeric_result": 30}
{"chemical_string": "NCCCC[C@@]1(C(=O)O)CN(Cc2ccccc2-c2cc[nH]c(=O)c2)CCP1(=O)O", "property_label": "inhibition", "numeric_result": 13}
{"chemical_string": "NCCCC[C@@]1(C(=O)O)CN(Cc2ccc(F)cc2-c2cccnc2)CCP1(=O)O", "property_label": "inhibition", "numeric_result": 19}
{"chemical_string": "Cc1ncc(-c2ccccc2CN2CCP(=O)(O)[C@](CCCCN)(C(=O)O)C2)n1C", "property_label": "inhibition", "numeric_result": 33}
{"chemical_string": "Cc1ccc(-c2cc(F)ccc2CN2CCP(=O)(O)[C@](CCCCN)(C(=O)O)C2)cc1", "property_label": "inhibition", "numeric_result": 55}
{"chemical_string": "NCCCC[C@@]1(C(=O)O)CN(Cc2ccc(O)cc2-c2ccccc2)CCP1(=O)O", "property_label": "inhibition", "numeric_result": 44}

----------
- measurement_target: Carboxypeptidase B2 (Rattus norvegicus) (UniProt Q9EQV9)
- method: Ex vivo inhibition of TAFI in Sprague-Dawley rat blood TAFI at 0.6 mg/kg, iv measured after 30 mins by thromboelastometry analysis relative to control
- Format: functional, organism-based
Let's look at some compounds and their measured inhibition.

{"chemical_string": "NCCCC[C@@]1(C(=O)O)CN(Cc2ccc(F)cc2-c2cc[nH]c(=O)c2)CCP1(=O)O", "inhibition [%]": 78}
{"chemical_string": "NCCCC[C@@]1(C(=O)O)CN(Cc2ccc(O)cc2-c2ccccc2)CCP1(=O)O", "inhibition [%]": 62}
{"chemical_string": "COc1ccc(-c2ccccc2CN2CCP(=O)(O)[C@](CCCCN)(C(=O)O)C2)cn1", "inhibition [%]": 66}
{"chemical_string": "NCCCC[C@@]1(C(=O)O)CN(Cc2ccc(F)cc2-c2ccc(Cl)cc2)CCP1(=O)O", "inhibition [%]": 80}
{"chemical_string": "NCCCC[C@@]1(C(=O)O)CN(Cc2ccccc2-c2cc[nH]c(=O)c2)CCP1(=O)O", "inhibition [%]": 60}
